These entries and their values trace back to the RNAGym collection of RNA variant scans (doi:10.1126/science.aae0568).

// reported yeast fitness per item
B1: tRNA (parent)
chain: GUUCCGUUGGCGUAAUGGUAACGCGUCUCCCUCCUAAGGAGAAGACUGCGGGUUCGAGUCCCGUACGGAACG

variants of: B1; test: yeast fitness relative to wild type (ratio to wild type); higher = fitter; tRNA-Arg(CCU), competitive growth, 37 C, YPD
Fewer inactive variants are shown than the library holds.
OBSERVED PROPERTY: yeast fitness

>>> meas_value("GUUCCGUUGGCGUAAUGGUAACACGUCUCCCUCCUUAGCAGAAGACUGCGGGUUCGAGUCCCGUACGGACCG [G23A A36U G39C A70C]")
"≤ 0.5"
>>> meas_value("GUUCCGUUGGCGUAAUGGUAACGCGUCUCCCUCCUAAGGUGAAGACUGCGGGUUAGAGUCCCGUACGUAACG [A40U C55A G68U]")
"≤ 0.5"
>>> meas_value("GUUCAGUUGGCGUAAUGGUAACGCGACUCCCUCCUAAGGAGAAGACUGCGCGUUCGAGUCGCGUACGGAACG [C5A U26A G51C C61G]")
"≤ 0.5"
>>> meas_value("GUUCCGUUGGCGUGAUGGUACCGCGUCUCGCUCCUAAGGAGAAGACUGCGGGUUCGGGUCCCGUACGGAACG [A14G A21C C30G A57G]")
"≤ 0.5"
>>> meas_value("GUUCCAUUGGCAUAAUGGUAACGCGUUUCGCUCCUAAGGAGAAGACUGCGGGUUUGCGUCCCGUACGGAACG [G6A G12A C27U C30G C55U A57C]")
"≤ 0.5"
>>> meas_value("GUUCCGUUGGCGUAAUGGUAACGCGUAUCCCUCCUAAGGAGAAGACUGCGGGUUCCAGUCCCGUAGGGAACG [C27A G56C C66G]")
"≤ 0.5"
>>> meas_value("GUUCCGUUGCCGUAAUGGUAACGCGUCUCCAUCCCAAGGAGAAGUCUGCGGGUUCGAGUCCCGUACGGAACG [G10C C31A U35C A45U]")
"≤ 0.5"
>>> meas_value("GUUCCGUUCGCGUAAUGGUAACGCGUCUCACUCCCAAGGAGAAGACUGCGGGUUCGAGUCCCGUACGGAACG [G9C C30A U35C]")
"≤ 0.5"
>>> meas_value("GUUCCGUUGGUGUAUUGGUAACGCGUCUCCCUACUAAGGAGAAGACUGCGGGUUCGAGUCCCGUACGGAACG [C11U A15U C33A]")
"≤ 0.5"
>>> meas_value("GUUCCGUUGGCGUAAUGGUAACGCGUCUCCCUCGUAAGGAGAAGACUGCGGGUUCGAGCCCCGUACGGAACG [C34G U59C]")
0.602
>>> meas_value("GUUCCGUUGGCGUAAUGGUAACGCGUCUCCCUCCUAAGGAGAAGAUUACGGGUUUGAGACCCGUACGGAACG [C46U G48A C55U U59A]")
"≤ 0.5"
>>> meas_value("GUUGCGUUGGCGUGAUGGUAACGCGUCUCCCUCCUAAGGAGAAGACUGCGGAUUCGAGUCCCGUACGGAACG [C4G A14G G52A]")
"≤ 0.5"
>>> meas_value("GUUCCGUUGGCGUAAUGGUAAAGCGUCUCCGUCCUAAGGAGAAGACUGCGGGUUCGAGUCCCGUACGAAACG [C22A C31G G68A]")
"≤ 0.5"
>>> meas_value("GUUCCGUUGGCGUAAUGGUAACGUGUCUCCCUCCUAAGGAGAAAACUGCGGGUUCGAGUCCCGUACGGAACG [C24U G44A]")
0.912
>>> meas_value("GUUCAGUUGGCGUAAUGGUAACGCGUCUCCGUCCUAAGGAGAAGACUGCGGGUUCGAGUCCCGUACGGAACG [C5A C31G]")
0.889
>>> meas_value("GUUCCGGUGGCGUAAUGGUAACGCGUCUCCCUCCUAAGGAGAAGACUACGGGUUCGAGUCCCGUACGUACCG [U7G G48A G68U A70C]")
0.541
>>> meas_value("GUUCCGUUGGCGAAAUGGUAACGCGUCUCCUUCCUAAGGUGAAGACUGCGGGUUCGAGUCCCGUACGGAACG [U13A C31U A40U]")
1.04
>>> meas_value("GUUCCGUUGGCGUAAUGGUAACGCAUCUCCCUCAUAAGGAGAAGACUGCGGGUUCGAGUCCCGUACGGAACG [G25A C34A]")
0.77
>>> meas_value("GUUCCGUCGGCGAAAUGGUAACGCGUCUCCCCCCUAAGGAGAAGACUGCGGGUUCGAGUCCCGUACGGUACG [U8C U13A U32C A69U]")
0.677
>>> meas_value("GUUCCGUUGGCGUAAUGGUAACAUGUCUCCCUCCUACGGACAAGACUGCGGGUCCGAGUCCCGCACGGAACG [G23A C24U A37C G41C U54C U64C]")
"≤ 0.5"
>>> meas_value("GUCCCGUGGGCGUAAUGGUAACGCGUCUCCCAGCUAAGGAGAAGACUGCGGGUUCGAGUCCCGUACGGAACG [U3C U8G U32A C33G]")
"≤ 0.5"
>>> meas_value("GUUCCGUUAGCGUAAUGGUAACGCGUCUCCCUCCAAAGGAGACGACUGCGGGUUCGAGUCCCGUACGGAACG [G9A U35A A43C]")
"≤ 0.5"
>>> meas_value("GUUGCGUUGGCGUAAUGGUAUCGCGUCUCCCUCCUAAGGACAAGACUGCGGGCUCGAGUCCCGUCCGGAACG [C4G A21U G41C U53C A65C]")
0.535
>>> meas_value("GCUCCGUUGGCGUAAUGCUAGCGCGUCUCCCUCCUAAGGAGAAGACUGCGGGUUCGAGUCCCGUACGGAACG [U2C G18C A21G]")
0.569
>>> meas_value("GUGCCGUUCGCGUAAUGGUAACGCGUCUCCCUGCUAAGGAGAAGAUUGCGGGUUCGAGUCCCGUACGGAACG [U3G G9C C33G C46U]")
"≤ 0.5"
>>> meas_value("GUUCCGUUGGCGUCAUGGUAACGCGUCUCCCUCCUAAGGAGAAGACUGCGGGUUCGAGUGCCGUAUGAAACG [A14C C60G C66U G68A]")
"≤ 0.5"
>>> meas_value("GUUUCGUUGGCGUAAUGGUAACGCGUCUCCCUCCUAAGGAGAAGACUACGGGUGCGAGUCCCGUACGGAACG [C4U G48A U54G]")
"≤ 0.5"
>>> meas_value("GUUCCGUUGGCGUAAUGGUAACGCGUCUUCCUCCUAAGGAGAAGACUGCGGGUUUGAGUCCCGUACGGAACG [C29U C55U]")
0.636
>>> meas_value("GAUCCGUUGGCGUAAUGGUAACGCGUCUCCCUCCUAACGCGAAGACUGUGGGUUCGAGUCCCGUACGGAACG [U2A G38C A40C C49U]")
0.527
>>> meas_value("GUUUCGUUGGCGUAAUGGUAAGGCGUCACCCUCCUUAGGAGAAGACUGCGGGUUCGAGUCCCGUUCGGAACG [C4U C22G U28A A36U A65U]")
"≤ 0.5"
>>> meas_value("GUUCCGAUGACGUAAUGGUCACGCGUCUACCUCCUAAGGAGAAGACUGCGGGUUGGAGUCCCCUACGGAACG [U7A G10A A20C C29A C55G G63C]")
"≤ 0.5"
>>> meas_value("GUUCCAUUGGCGAGAUGGUAACGCGUCUCCCUCCUAAGGACAAGACUGCGGGUUCGAGUCCCGUACGGAACG [G6A U13A A14G G41C]")
"≤ 0.5"
>>> meas_value("GUUCCGUUGGCGUAAUGGUAACGCGUCUUCCUCCUAAGGAGAAGCCUGCGGGUUCGAGUACCGUACGGAACG [C29U A45C C60A]")
0.598
>>> meas_value("GUUCCGUUGGCGUAAAGGUAACGCGUCUCCCUCCUAAGAAGAAGAUUGCGGGUUCGUGUCCCGUAUGGAACG [U16A G39A C46U A57U C66U]")
"≤ 0.5"
>>> meas_value("GUUCCGUAGGCGUAAUGCUAACGCGUUUCCCUCCUAAGGAGAAGACUGCGGGUUCGAGUCCCGUCCGGAACG [U8A G18C C27U A65C]")
"≤ 0.5"
>>> meas_value("GUUCCCUUGGCGUAAUAGUAACGCGUCUCCCUCCUUAGGAGAAGACUGCGGGUUCGAGUCCCGUACGGAACG [G6C G17A A36U]")
"≤ 0.5"
>>> meas_value("GUCCCGUUGGCGUAAUGGUAACGCGUCUCCCUCUUAAGGACAAGACUGUGGGUUCGAAUCCCGAACGGAACG [U3C C34U G41C C49U G58A U64A]")
"≤ 0.5"
>>> meas_value("GUUCCGUUGGCGUAAUGGUAACGCGUCUCCCACAUAAGGAGAAGACUGCGGGUUCGAGUCCCGUACGGAACG [U32A C34A]")
0.648
